Where a name gives a salt, the structure may show the parent alone.

# compound, melting point
rows = [
    ("CCN(C)Cc1ccc(OCCCN2CCN(c3cccc4sccc34)CC2)c(C)c1 (as salt: hydrochloride) [Example 307]", "256.5 °C (dec.)"),
    ("CN(C)CCc1ccc(OCCCN2CCN(c3cccc4sccc34)CC2)cc1 (as salt: hydrochloride) [Example 382]", "238.5 °C (dec.)"),
    ("COc1cc(C(N)=O)ccc1OCCCN1CCN(c2cccc3sccc23)CC1 [Example 190]", "162 to 163.5 °C"),
    ("CNC(=O)c1ccc(OCCCN2CCN(c3cccc4sccc34)CC2)c(N)c1 [Example 232]", "124 to 125.5 °C"),
    ("CN1CNc2ccc(OCCCN3CCN(c4cccc5sccc45)CC3)cc2C1.Cl", "203.1 to 204.4 °C"),
    ("CN(C)C(=O)c1csc(OCCCN2CCN(c3cccc4sccc34)CC2)n1 (as salt: hydrochloride) [Example 1113]", "178 to 182 °C"),
    ("CN(C)C(=O)N1CCC(OCCCN2CCN(c3cccc4sccc34)CC2)CC1 (as salt: hydrochloride) [Example 1110]", "202 to 205 °C"),
    ("COc1cc(NC(=O)CNC(=O)OC(C)(C)C)cc(C)c1OCCCN1CCN(c2cccc3sccc23)CC1 [Example 1059]", "140.5 to 142.5 °C"),
]

* * *

Structures can show the parent of a compound that is named as a salt.
Please consider the recorded Ki for Serotonin 5-HT2A receptor (Rattus norvegicus) in what follows.

# molecule, Ki, nM
data = [
    ("COc1cc(N(C)C(C)=O)cc(C)c1OCCCN1CCN(c2cccc3sccc23)CC1.Cl [Example 14, hydrochloride]", 2.4),
    ("COC(=O)N1CCN(c2cc(C=O)c(OCCCN3CCN(c4cccc5sccc45)CC3)c(OC)c2)CC1", 5.8),
    ("NC(=O)c1cc(OCCCN2CCN(c3cccc4sccc34)CC2)ccn1", 3.8),
    ("CN1CCN(Cc2ccc(OCCCN3CCN(c4cccc5sccc45)CC3)cc2)CC1", 0.8),
    ("CNC(=O)c1ccc(OC)c(OCCCN2CCN(c3cccc4sccc34)CC2)c1", 0.6),
    ("CC(=O)Nc1ccc(OCCCN2CCN(c3cccc4sccc34)CC2)cc1", 0.5),
    ("CN1CC(=O)N(C)c2ccc(OCCCN3CCN(c4cccc5sccc45)CC3)cc2C1=O", 3.1),
    ("CN(C)c1cc(OCCCCN2CCN(c3cccc4sccc34)CC2)n(C)n1", 19.7),
    ("COC(=O)N1CCN(c2cc(CO)c(OCCCN3CCN(c4cccc5sccc45)CC3)c(OC)c2)CC1", 2.6),
    ("COC(=O)N(C)c1cc(C)c(OCCCN2CCN(c3cccc4sccc34)CC2)c(OC)c1 [Example 17, hydrochloride]", 3.4),
    ("NC(=O)c1ccc(OCCCCN2CCN(c3cccc4sccc34)CC2)cc1", 2.6),
]

* * *

Target: Serotonin 5-HT2A receptor (Rattus norvegicus)
Sequence (P14842 whole entry): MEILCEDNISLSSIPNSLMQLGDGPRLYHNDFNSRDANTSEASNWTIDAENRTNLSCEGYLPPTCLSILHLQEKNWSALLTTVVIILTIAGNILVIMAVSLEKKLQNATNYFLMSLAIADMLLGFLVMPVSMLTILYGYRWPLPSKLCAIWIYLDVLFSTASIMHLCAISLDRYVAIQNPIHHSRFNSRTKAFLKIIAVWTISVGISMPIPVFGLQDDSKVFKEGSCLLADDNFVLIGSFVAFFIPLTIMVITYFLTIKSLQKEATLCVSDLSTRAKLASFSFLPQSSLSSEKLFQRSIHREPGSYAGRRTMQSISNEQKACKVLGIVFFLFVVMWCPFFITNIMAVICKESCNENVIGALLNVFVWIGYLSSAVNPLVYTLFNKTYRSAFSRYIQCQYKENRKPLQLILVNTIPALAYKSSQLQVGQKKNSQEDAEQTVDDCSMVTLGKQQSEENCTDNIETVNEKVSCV
Lab note: compare Ki with 4 nM, writing criterion met if less and criterion not met if equal or more.

# compound, class.name
rows = [
    ("COc1cc(N(C)C)cc(C)c1OCCCN1CCN(c2cccc3sccc23)CC1.Cl [Example 15, hydrochloride]", "criterion not met"),
    ("CCNC(=O)c1cc(OCCCN2CCN(c3cccc4sccc34)CC2)no1 [Example 72]", "criterion met"),
    ("Cn1cnc2cc(OCCCN3CCN(c4cccc5sccc45)CC3)ccc21 [Example 121]", "criterion met"),
    ("NC(=O)Cc1ccc(OCCCN2CCN(c3cccc4sccc34)CC2)cc1 [Example 340]", "criterion not met"),
    ("CN(C)C(=O)N1CCC(OCCCN2CCN(c3cccc4sccc34)CC2)CC1 [Example 1110]", "criterion not met"),
    ("CNC(=O)c1csc(OCCCN2CCN(c3cccc4sccc34)CC2)n1.Cl [Example 6, hydrochloride]", "criterion met"),
    ("COc1cc(N2CCCCC2)cc(C)c1OCCCN1CCN(c2cccc3sccc23)CC1 [Example 1089]", "criterion not met"),
]
